Assay: Pharmacokinetic evaluation in mice (IV and oral gavage)
Format: in vivo, female Balb/c nude mice
Conditions: mouse, plasma; PO gavage 10 mg/kg, female Balb/c nude mice; read-out: Tmax (time to peak)
property name: Tmax (min)

C=CC(=O)N[C@H]1COC[C@H]1Nc1ncc(OCc2c(Cl)c(OC)cc(OC)c2Cl)cn1 [Control example 8] : 15

(I) C=CC(=O)NC1COCC1Nc1ncc(C=C(F)c2c(Cl)c(OC)cc(OC)c2Cl)cn1 (single isomer, unassigned)
(II) C=CC(=O)N[C@H]1CCOC[C@H]1Nc1ncc(/C=C(\F)c2c(Cl)c(OC)cc(OC)c2Cl)cn1
Exercise: Determine, for I and II , which has the greater value of Tmax. Indicate which entry you chose by stating its label.
Key: II

* * *

Assay: Pharmacokinetic evaluation in mice (IV and oral gavage)
Format: in vivo, female Balb/c nude mice
Conditions: mouse, plasma; IV tail vein 2 mg/kg, female Balb/c nude mice; read-out: Cl (plasma clearance)
property name: clearance (mL/min/kg)

Consider the following illustrative entries.
C=CC(=O)N[C@H]1CCOC[C@H]1Nc1ncc(/C=C(\F)c2c(Cl)c(OC)cc(OC)c2Cl)cn1 : 23.9
C=CC(=O)Nc1cccc(C)c1Nc1ncc(/C=C(\F)c2c(Cl)c(OC)cc(OC)c2Cl)cn1 : 50
C=CC(=O)N[C@H]1COC[C@H]1Nc1ncc(OCc2c(Cl)c(OC)cc(OC)c2Cl)cn1 [Control example 8] : 39.7

(P) C=CC(=O)NC1COCC1Nc1ncc(C=C(F)c2c(Cl)c(OC)cc(OC)c2Cl)cn1 (single isomer, unassigned)
(Q) C=CC(=O)Nc1cccc(C)c1Nc1ncc(OCc2c(Cl)c(OC)cc(OC)c2Cl)cn1 [Control example 5]
(R) C=CC(=O)N[C@H]1CCOC[C@H]1Nc1ncc(OCc2c(F)c(OC)cc(OC)c2F)cn1 [Control example 4]
(S) C=CC(=O)Nc1cccc(C)c1Nc1ncc(OCc2c(F)c(OC)cc(OC)c2F)cn1 [Control example 6]
Exercise: // ranking: key=clearance, reverse=True As an answer, provide the labels arranged in the order called for.
Key: S, Q, R, P

* * *

Test: Pharmacokinetic evaluation in mice (IV and oral gavage)
Assay type: in vivo, female Balb/c nude mice
Settings: mouse, plasma; IV tail vein 2 mg/kg, female Balb/c nude mice; read-out: T1/2 (elimination half-life) (converted)
property name: half-life (min)

C=CC(=O)NC1COCC1Nc1ncc(C=C(F)c2c(Cl)c(OC)cc(OC)c2Cl)cn1 (single isomer, unassigned) : 17.5
C=CC(=O)Nc1cccc(C)c1Nc1ncc(OCc2c(F)c(OC)cc(OC)c2F)cn1 [Control example 6] : 14.1

(P) C=CC(=O)N[C@H]1CCOC[C@H]1Nc1ncc(/C=C(\F)c2c(Cl)c(OC)cc(OC)c2Cl)cn1
(Q) C=CC(=O)N[C@H]1COC[C@H]1Nc1ncc(OCc2c(Cl)c(OC)cc(OC)c2Cl)cn1 [Control example 8]
Exercise: Please indicate which has the smaller reported half-life: P , or Q . Answer by quoting the chosen item's label.
Key: Q

(I) C=CC(=O)Nc1cccc(C)c1Nc1ncc(/C=C(\F)c2c(Cl)c(OC)cc(OC)c2Cl)cn1
(II) C=CC(=O)Nc1cccc(C)c1Nc1ncc(OCc2c(Cl)c(OC)cc(OC)c2Cl)cn1 [Control example 5]
(III) C=CC(=O)N[C@H]1CCOC[C@H]1Nc1ncc(OCc2c(F)c(OC)cc(OC)c2F)cn1 [Control example 4]
Exercise: List items by half-life in falling order. Field: ranking. Enter the labels in the order requested.
Key: I, II, III
(I: 32.9 min, II: 13.3 min, III: 6.84 min)

* * *

Experiment: Pharmacokinetic evaluation in mice (IV and oral gavage)
Type: in vivo, female Balb/c nude mice
Settings: PO gavage 10 mg/kg vs IV 2 mg/kg, female Balb/c nude mice
property name: F (bioavailability; oral absorption ratio) (%)

Some compounds with known F (bioavailability; oral absorption ratio) results, for comparison:
C=CC(=O)N[C@H]1CCOC[C@H]1Nc1ncc(OCc2c(F)c(OC)cc(OC)c2F)cn1 [Control example 4] : 0
C=CC(=O)NC1COCC1Nc1ncc(C=C(F)c2c(Cl)c(OC)cc(OC)c2Cl)cn1 (single isomer, unassigned) [Example 21] : 20.4

(a) C=CC(=O)Nc1cccc(C)c1Nc1ncc(/C=C(\F)c2c(Cl)c(OC)cc(OC)c2Cl)cn1 [Example 24]
(b) C=CC(=O)Nc1cccc(C)c1Nc1ncc(OCc2c(F)c(OC)cc(OC)c2F)cn1 [Control example 6]
Exercise: // pick larger F (bioavailability; oral absorption ratio) from pair: a vs b Label of pick, please.
Key: a

(I) C=CC(=O)N[C@H]1COC[C@H]1Nc1ncc(OCc2c(Cl)c(OC)cc(OC)c2Cl)cn1 [Control example 8]
(II) C=CC(=O)Nc1cccc(C)c1Nc1ncc(OCc2c(Cl)c(OC)cc(OC)c2Cl)cn1 [Control example 5]
Exercise: Hey, between I and II which has a smaller measured F (bioavailability; oral absorption ratio)? Label of pick, please.
Key: II

* * *

Test: Pharmacokinetic evaluation in mice (IV and oral gavage)
Type: in vivo, female Balb/c nude mice
Conditions: mouse, plasma; IV tail vein 0.2 mg/kg, female Balb/c nude mice; read-out: T1/2 (elimination half-life) (converted)
property name: half-life (min)
Field format: number, assumed min, no unit text.

Exercise: // fetch half-life given entry C=CC(=O)N[C@H]1COC[C@H]1Nc1ncc(OCc2c(F)c(OC)cc(OC)c2F)cn1 [Control example 7]
Key: 6.54

* * *

Test: Pharmacokinetic evaluation in mice (IV and oral gavage)
Type: in vivo, female Balb/c nude mice
Conditions: mouse, plasma; PO gavage 10 mg/kg, female Balb/c nude mice
property name: AUC(0-t) (µM·h)

Here is how some compounds turned out for AUC(0-t).
C=CC(=O)N[C@H]1COC[C@H]1Nc1ncc(OCc2c(Cl)c(OC)cc(OC)c2Cl)cn1 [Control example 8] : 1.1
C=CC(=O)NC1COCC1Nc1ncc(C=C(F)c2c(Cl)c(OC)cc(OC)c2Cl)cn1 (single isomer, unassigned) : 1.07

(a) C=CC(=O)Nc1cccc(C)c1Nc1ncc(/C=C(\F)c2c(Cl)c(OC)cc(OC)c2Cl)cn1
(b) C=CC(=O)N[C@H]1CCOC[C@H]1Nc1ncc(/C=C(\F)c2c(Cl)c(OC)cc(OC)c2Cl)cn1
Exercise: # argmax over AUC(0-t) for candidates a and b Return value: the label identifying the chosen record.
Key: b
(b: 5.64 µM·h, a: 0.962 µM·h)

* * *

Experiment: Pharmacokinetic evaluation in mice (IV and oral gavage)
Assay type: in vivo, female Balb/c nude mice
Conditions: mouse, plasma; PO gavage 1.0 mg/kg vs IV 0.2 mg/kg, female Balb/c nude mice; read-out: F (bioavailability)
property name: bioavailability (%)
Number only, in %; omit the unit.

Exercise: Give the measured bioavailability for C=CC(=O)N[C@H]1COC[C@H]1Nc1ncc(OCc2c(F)c(OC)cc(OC)c2F)cn1 [Control example 7]
Key: 0

* * *

Experiment: Pharmacokinetic evaluation in mice (IV and oral gavage)
Assay type: in vivo, female Balb/c nude mice
Settings: mouse, plasma; IV tail vein 0.2 mg/kg, female Balb/c nude mice
property name: AUC(0-t) (µM·h)
# unit: µM·h | format: bare number

Exercise: Note AUC(0-t) for the compound shown: C=CC(=O)N[C@H]1COC[C@H]1Nc1ncc(OCc2c(F)c(OC)cc(OC)c2F)cn1 [Control example 7]
Key: 0.113

* * *

Experiment: Pharmacokinetic evaluation in mice (IV and oral gavage)
Format: in vivo, female Balb/c nude mice
Details: mouse, plasma; IV tail vein 2 mg/kg, female Balb/c nude mice; read-out: Vdss (steady-state apparent volume of distribution)
property name: Vd (L/kg)

Observe how each entry below is paired with its result.
C=CC(=O)Nc1cccc(C)c1Nc1ncc(OCc2c(Cl)c(OC)cc(OC)c2Cl)cn1 [Control example 5] : 1.28
C=CC(=O)N[C@H]1COC[C@H]1Nc1ncc(OCc2c(Cl)c(OC)cc(OC)c2Cl)cn1 [Control example 8] : 0.407
C=CC(=O)Nc1cccc(C)c1Nc1ncc(OCc2c(F)c(OC)cc(OC)c2F)cn1 [Control example 6] : 2.44

(A) C=CC(=O)N[C@H]1CCOC[C@H]1Nc1ncc(OCc2c(F)c(OC)cc(OC)c2F)cn1 [Control example 4]
(B) C=CC(=O)Nc1cccc(C)c1Nc1ncc(/C=C(\F)c2c(Cl)c(OC)cc(OC)c2Cl)cn1 [Example 24]
(C) C=CC(=O)N[C@H]1CCOC[C@H]1Nc1ncc(/C=C(\F)c2c(Cl)c(OC)cc(OC)c2Cl)cn1 [Example 16]
Exercise: Thanks in advance: please rank these 3 entries by Vd, highest to lowest. Answer format: the labels, in the requested order.
Key: B, C, A

* * *

pIC50: −log10 of the molar value.
Parameter 'readout' = pIC50; parameter 'system' = UniProtKB P11362.
Sequence (P11362 22-822): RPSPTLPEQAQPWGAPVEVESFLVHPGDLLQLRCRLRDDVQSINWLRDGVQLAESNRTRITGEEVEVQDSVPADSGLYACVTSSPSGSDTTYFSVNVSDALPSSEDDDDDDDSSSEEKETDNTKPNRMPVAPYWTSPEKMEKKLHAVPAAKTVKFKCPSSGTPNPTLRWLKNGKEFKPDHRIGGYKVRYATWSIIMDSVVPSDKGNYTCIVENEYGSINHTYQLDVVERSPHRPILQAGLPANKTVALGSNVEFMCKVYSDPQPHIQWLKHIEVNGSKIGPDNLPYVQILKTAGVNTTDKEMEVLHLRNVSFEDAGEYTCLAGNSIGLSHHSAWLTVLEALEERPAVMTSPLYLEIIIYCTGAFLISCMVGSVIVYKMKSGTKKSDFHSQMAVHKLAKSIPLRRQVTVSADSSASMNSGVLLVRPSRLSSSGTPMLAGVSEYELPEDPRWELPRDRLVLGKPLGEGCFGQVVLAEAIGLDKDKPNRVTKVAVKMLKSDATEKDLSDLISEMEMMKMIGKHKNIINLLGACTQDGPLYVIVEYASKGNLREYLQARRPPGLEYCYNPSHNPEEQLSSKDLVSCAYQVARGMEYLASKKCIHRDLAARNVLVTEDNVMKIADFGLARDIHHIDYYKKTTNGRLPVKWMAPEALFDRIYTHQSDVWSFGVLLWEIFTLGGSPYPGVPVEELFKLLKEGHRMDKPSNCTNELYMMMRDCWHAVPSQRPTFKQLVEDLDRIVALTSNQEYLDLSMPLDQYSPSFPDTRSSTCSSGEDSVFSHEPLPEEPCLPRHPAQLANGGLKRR
property name: pIC50

(a) C=CC(=O)Nc1cccc(F)c1Nc1ccc(/C=C(\F)c2c(Cl)c(OC)cc(OC)c2Cl)cn1
(b) C=CC(=O)N[C@@H]1CCC[C@@H]1Nc1ncc(/C=C(\F)c2c(Cl)c(OC)cc(OC)c2Cl)cn1
Exercise: Consider a and b . Which of these has its pIC50 at a higher number? Answer by stating the label of the chosen item.
Key: b
